Target: AsPC-1 HiBiT-KRASG12D (Homo sapiens, UniProt P01116, G12D)
Construct: insert the HiBiT tag onto the N-terminus of one or more of the endogenous KRAS alleles; endogenous in cells; host or cells: AsPC-1 (ATCC CRL-1682), CRISPR-Cas9 knock-in clone, one tagged allele
Sequence (P01116 1-188 isoform P01116-2 G12D): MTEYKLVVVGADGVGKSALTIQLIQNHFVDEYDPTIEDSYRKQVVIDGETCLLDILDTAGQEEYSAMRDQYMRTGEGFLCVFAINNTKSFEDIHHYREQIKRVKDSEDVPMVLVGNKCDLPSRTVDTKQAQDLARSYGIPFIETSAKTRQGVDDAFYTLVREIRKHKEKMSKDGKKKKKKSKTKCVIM
Experiment: HiBiT degradation assay (G12D), AsPC-1 HiBiT-KRASG12D cells
Type: cell-based
Settings: AsPC-1 HiBiT-KRASG12D cells, 24 hours treatment, HiBiT luminescence
READOUT: DC50

Observe how each entry below is paired with its result.
>>> result("CCc1cccc2cc(O)cc(-c3ncc4c(N5CC6CCC(C5)N6)nc(N5CC(N6CCC(CC7CN(c8cc([C@H](C(=O)N9C[C@H](O)C[C@H]9C(=O)N[C@@H](C)c9ccc(-c%10scnc%10C)cc9)C(C)C)on8)C7)CC6)C5)nc4c3F)c12")
"< 0.6 µM"
>>> result("CCc1cccc2cc(O)cc(-c3ncc4c(N5CC6CCC(C5)N6)nc(OCCN5CCC(CC6CCN(c7cc(C(C(=O)N8C[C@H](O)C[C@H]8C(=O)N[C@@H](C)c8ccc(-c9scnc9C)cc8)C(C)C)on7)CC6)CC5)nc4c3F)c12 (single isomer, unassigned) [Compound 320]")
"< 0.6 µM"
>>> result("CCc1cccc2cc(O)cc(-c3ncc4c(N5CC6CCC(C5)N6)nc(OC[C@H]5CC[C@@]6(COC(=O)N7CCN(c8cc([C@H](C(=O)N9C[C@H](O)C[C@H]9C(=O)N[C@@H](C)c9ccc(-c%10scnc%10C)cc9)C(C)C)on8)CC7)CCCN56)nc4c3F)c12")
"< 0.6 µM"
>>> result("CCc1cccc2cc(O)cc(-c3ncc4c(N5CC6CCC(C5)N6)nc(OC[C@@]56CCCN5[C@H](COC(=O)N5CC(Oc7cc([C@@H](C(=O)N8C[C@H](O)C[C@H]8C(=O)N[C@@H](C)c8ccc(-c9scnc9C)cc8)C(C)C)on7)C5)CC6)nc4c3F)c12")
"0.6 to 1 µM"
>>> result("CCc1cccc2cc(O)cc(-c3ncc4c(N5CCCCCC5)nc(OC[C@]56CCCN5[C@H](COc5cc([C@@H](C(=O)N7C[C@H](O)C[C@H]7C(=O)N[C@@H](C)c7ccc(-c8scnc8C)cc7)C(C)C)on5)CC6)nc4c3F)c12")
"> 3 µM"

input: Lab request: please report DC50 under test system AsPC-1 HiBiT-KRASG12D (Homo sapiens, UniProt P01116, G12D) for CCc1cccc2cc(O)cc(-c3ncc4c(N5CC6CCC(C5)N6)nc(OCCN5CCC(O)(CC6CCN(c7cc([C@@H](C(=O)N8C[C@H](O)C[C@H]8C(=O)N[C@@H](C)c8ccc(-c9scnc9C)cc8)C(C)C)on7)CC6)CC5)nc4c3F)c12
output: 1 to 3 µM

input: Try the compound Cc1ncsc1-c1ccc([C@H](C)NC(=O)[C@@H]2C[C@@H](O)CN2C(=O)[C@@H](c2cc(OCC3CCN(CCOc4nc(N5CC6CCC(C5)N6)c5cnc(-c6cc(O)cc(Cl)c6C(C)C)c(F)c5n4)CC3)no2)C(C)C)cc1
output: < 0.6 µM

input: Try the compound CCc1cccc2cc(O)cc(-c3ncc4c(N5CC6CCC(C5)N6)nc(OC[C@@]56CCCN5[C@H](COC(=O)N5CCC(Oc7cc([C@@H](C(=O)N8C[C@H](O)C[C@H]8C(=O)N[C@@H](C)c8ccc(-c9scnc9C)cc8)C(C)C)on7)CC5)CC6)nc4c3F)c12
output: 0.6 to 1 µM

// provenance: patent US20250206732A1
